target: Human PD-L1/PD-1 (Homo sapiens, UniProt Q9NZQ7); construct: made in house; host or cells: HEK293T; assay: HTRF PD-1-Ig/PD-L1-His binding assay (human PD-L1); settings: cluster symbol; read-out: HTRF IC50 cluster
Sequence (Q9NZQ7 with tags, fused parts or gaps): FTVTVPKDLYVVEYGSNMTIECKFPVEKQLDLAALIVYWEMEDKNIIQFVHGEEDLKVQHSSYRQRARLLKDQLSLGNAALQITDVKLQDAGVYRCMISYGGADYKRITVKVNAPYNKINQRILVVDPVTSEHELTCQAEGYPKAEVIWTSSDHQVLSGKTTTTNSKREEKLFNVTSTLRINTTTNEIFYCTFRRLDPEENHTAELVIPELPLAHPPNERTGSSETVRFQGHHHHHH
pIC50: −log10 of the molar value. Positions of bridges follow the written chain, without caps; N, C: chain ends. Non-standard residues stand in square brackets, D forms with d. Residues, ends and D or L forms follow the SMILES beside them. Hyp = O=C(O)[C@@H]1C[C@@H](O)CN1; NMeNle = CCCC[C@H](NC)C(=O)O; NMeA = CN[C@@H](C)C(=O)O; Dab = NCC[C@H](N)C(=O)O; Sar = CNCC(=O)O
EXPERIMENTAL READOUT: pIC50

[
  {
    "MOLECULE": "CCCC[C@H]1C(=O)N(C)[C@@H](CCCC)C(=O)N[C@@H](CO)C(=O)N[C@H](C(=O)NCC(N)=O)CSCC(=O)N[C@@H](Cc2ccc(O)cc2)C(=O)N(C)[C@@H](C)C(=O)N[C@@H](CCN)C(=O)N2CCC[C@H]2C(=O)N[C@@H](Cc2c[nH]cn2)C(=O)N[C@@H](CCC(=O)O)C(=O)N2C[C@H](O)C[C@H]2C(=O)N[C@@H](Cc2c[nH]c3ccccc23)C(=O)N[C@@H](C(C)C)C(=O)N[C@@H](Cc2c[nH]c3ccccc23)C(=O)N1C [Example 5097] ({CH2CO}-Y[NMeA][Dab]PHE[Hyp]WVW[NMeNle][NMeNle]SCG-NH2; thioether N-14)",
    "EXPERIMENTAL READOUT": "pIC50",
    "OBSERVED": "7.52 to 8.17"
  },
  {
    "MOLECULE": "CCCC[C@H]1C(=O)N(C)[C@@H](CCCC)C(=O)N[C@@H](CCCNC(=N)N)C(=O)N[C@H](C(=O)NCC(N)=O)CSCC(=O)N[C@@H](Cc2ccccc2)C(=O)N(C)[C@@H](C)C(=O)N[C@@H](CC(N)=O)C(=O)N2CCC[C@H]2C(=O)N[C@@H](CCN)C(=O)N[C@@H](CC(C)C)C(=O)N(C)CC(=O)N[C@@H](Cc2c[nH]c3ccccc23)C(=O)N[C@@H](CO)C(=O)N[C@@H](Cc2c[nH]c3ccccc23)C(=O)N1C [Example 1062] ({CH2CO}-F[NMeA]NP[Dab]L[Sar]WSW[NMeNle][NMeNle]RCG-NH2; thioether N-14)",
    "EXPERIMENTAL READOUT": "pIC50",
    "OBSERVED": "7.52 to 8.17"
  }
]
